Measurement type: melting point

Observe how each entry below is paired with its result.
Compound | melting point
O=C(Cc1ccccn1)NCC(c1ccccc1)C(c1ccccc1)c1ccccc1 (stereo not drawn) | 120.1 to 121.7 °C
O=C(Cc1ccsc1)NCC(c1ccccc1)C1c2ccccc2CCc2ccccc21 (stereo not drawn) | 167.3 to 169.3 °C
O=C(NCc1ccc(Cl)cc1Cl)NCC(c1ccccc1)C(c1ccccc1)c1ccccc1 (stereo not drawn) | 166 to 167 °C
O=C(CCc1c[nH]c2ccccc12)NCC(c1ccccc1)C(c1ccccc1)c1ccccc1 (stereo not drawn) | 100 to 114 °C
CC(C)(C)C(=O)NCC(c1ccccc1)C(c1ccccc1)c1ccccc1 (stereo not drawn) | 143 to 144 °C
CCCC(=O)NCC(c1ccccc1)C(c1ccccc1)c1ccccc1 (stereo not drawn) | 88 to 89 °C
O=C(Cc1cccs1)NCC(c1ccccc1)C1c2ccccc2CCc2ccccc21 (stereo not drawn) | 175 to 177.5 °C
Cc1ccc(S(=O)(=O)NCC(c2ccccc2)C(c2ccccc2)c2ccccc2)cc1 (stereo not drawn) | 139.7 to 142.1 °C
O=C(Cc1cccs1)NCC(c1ccccc1)C1c2ccccc2-c2ccccc21 (stereo not drawn) | 128.7 to 130.5 °C
O=C(Cc1ccccc1Cl)NCC1(c2ccccc2)CC1(c1ccccc1)c1ccccc1 (stereo not drawn) | 128.5 to 130.5 °C

Item: O=C(Cc1ccccc1)NCC(c1ccccc1)C1c2ccccc2CCc2ccccc21 (stereo not drawn) | melting point: 172.7 to 174.6 °C

The reported melting point of the compound CC(C)C(=O)NCC1(c2ccccc2)CC1(c1ccccc1)c1ccccc1 (stereo not drawn) was 167 to 168 °C

melting point in this record for CC(C)CC(=O)NCC(c1ccccc1)C(c1ccccc1)c1ccccc1 (stereo not drawn) : 112 to 113 °C

Entry O=C(Cc1c[nH]c2ccccc12)NCC(c1ccccc1)C(c1ccccc1)c1ccccc1 (stereo not drawn) ; melting point = 89 to 93 °C

Entry under test: Cc1ccc(S(=O)(=O)CC(=O)NCC(c2ccccc2)C(c2ccccc2)c2ccccc2)cc1 (stereo not drawn) . Its melting point was 190.3 to 191.9 °C

Entry O=C(NCC(c1ccccc1)C(c1ccccc1)c1ccccc1)Oc1ccc(F)cc1 (stereo not drawn) — recorded melting point = 150 to 151 °C

// sample O=S(=O)(Cc1ccccc1)NCC(c1ccccc1)C(c1ccccc1)c1ccccc1 (stereo not drawn) , its melting point was 172.9 to 174.2 °C

Record COc1ccc(CC(=O)NCC(c2ccccc2)C(c2ccccc2)c2ccccc2)cc1OC (stereo not drawn) , field melting point: 123 to 124.5 °C

For record COc1ccccc1CCC(=O)NCC(c1ccccc1)C(c1ccccc1)c1ccccc1 (stereo not drawn) the listed melting point is 137 to 140 °C

CCCC(=O)NCC1(c2ccccc2)CC1(c1ccccc1)c1ccccc1 (stereo not drawn) yielded melting point of 149 to 150 °C

melting point in this record for O=C(CCCc1ccccc1)NCC(c1ccccc1)C(c1ccccc1)c1ccccc1 (stereo not drawn) : 78.1 to 81 °C

The recorded melting point for entry COc1ccc(CC(=O)NCC(c2ccccc2)C(c2ccccc2)c2ccccc2)cc1 (stereo not drawn) equals 157 to 159 °C

// melting point lookup, compound = O=C(C=Cc1ccsc1)NCC(c1ccccc1)C(c1ccccc1)c1ccccc1 (stereo not drawn) , result: 204.8 to 206.5 °C

Item: O=C(CCc1ccccc1Cl)NCC(c1ccccc1)C(c1ccccc1)c1ccccc1 (stereo not drawn) | melting point: 135 to 135.8 °C

Entry O=C(Cc1ccccc1)NCC(c1ccccc1)C1c2ccccc2-c2ccccc21 (stereo not drawn) , melting point reported as 148.7 to 150.8 °C

// field: melting point; key: Cc1ccc(C(=O)NCC(c2ccccc2)C2c3ccccc3CCc3ccccc32)s1 (stereo not drawn) ; value = 172.1 to 173 °C

compound CCCCC(=O)NCC(c1ccccc1)C(c1ccccc1)c1ccccc1 (stereo not drawn) , melting point observed: 78 to 79 °C

According to the records, this compound Cc1ccc(CC(=O)NCC(c2ccccc2)C(c2ccccc2)c2ccccc2)cc1 (stereo not drawn) displays melting point of 142.3 to 143.6 °C

Query O=C(Cc1cccs1)NCC(c1ccccc1)C(c1ccc(F)cc1)c1ccc(F)cc1 (stereo not drawn) yields melting point of 84.9 to 85.3 °C

Briefly, melting point measured for O=C(Cc1cccs1)NCC(c1ccccc1)C(c1ccccc1)c1ccccc1 (stereo not drawn) : 130 to 132 °C
